Target: Protein farnesyltransferase (Homo sapiens, UniProt P49354+P49356)
Experiment: Inhibition of farnesyltransferase from human Burkitt lymphoma (Daudi) cells
pIC50: −log10 of the molar value.
Please enter y where pIC50 is greater than or equal to 7, and n where it is lower.

Problem: Check the entry COC(=O)c1cccc(-c2ccc(NCc3c[nH]cn3)cc2-c2ccccc2)c1 : does pIC50 equal or exceed 7?
Result: n

Problem: Kindly determine if pIC50 recorded for O=C(O)c1cccc(-c2ccc(NCc3cnc[nH]3)cc2-c2ccccc2)c1 is above or exactly 7.
Result: n

Problem: Test whether the compound O=C(O)c1cccc(-c2ccc(NCc3cccc(S)c3)cc2-c2ccccc2)c1 records pIC50 of 7 or higher.
Result: n

Problem: Threshold query (pIC50 >= 7) on COC(=O)c1cccc(-c2ccc(NC(=O)CCS)cc2-c2ccccc2)c1
Result: n

Problem: Is pIC50 for COC(=O)c1cccc(-c2ccc(NCc3cccc(S)c3)cc2-c2ccccc2)c1 at or above 7?
Result: n

Problem: Decide: pIC50 of N[C@@H](CS)CNc1ccc(-c2ccccc2)cc1 >= 7?
Result: n

Problem: Reported pIC50 at or above 7? COC(=O)c1cccc(-c2ccc(NCc3ccc(S)cc3)cc2-c2ccccc2)c1
Result: n

Problem: Is reported pIC50 greater than or equal to 7 here: CCCOc1cc(NC[C@@H](N)CS)ccc1-c1cccc(C(=O)O)c1
Result: y

Problem: I'd appreciate it if you could say whether COC(=O)c1cccc(-c2ccc(NCc3cncn3Cc3ccc([N+](=O)[O-])cc3)cc2-c2ccccc2)c1 has pIC50 at least equal to 7.
Result: n

Problem: For this compound, is measured pIC50 7 or higher? N[C@@H](CS)CNc1ccc(-c2cccc(C(=O)O)c2)c(-c2ccccc2)c1
Result: y

Next:
Problem: Does the compound COC(=O)c1cccc(-c2ccc(NCc3cncn3Cc3ccc(C#N)cc3)cc2-c2ccccc2)c1 have recorded pIC50 that is 7 or more?
Result: n

Problem: For this compound, is measured pIC50 7 or higher? O=C(O)c1cccc(-c2ccc(NCc3ccc(S)cc3)cc2-c2ccccc2)c1
Result: n

Problem: Hi, just wondering whether O=C(O)c1cccc(-c2ccc(NCc3cncn3Cc3ccc([N+](=O)[O-])cc3)cc2-c2ccccc2)c1 shows pIC50 of 7 or higher.
Result: n
